# tgt: furin (endogenous protease) in U20S cells (Homo sapiens)
# Construct: the endogenous protease cleaves GFP; endogenous in cells; host or cells: U2OS cells transduced with a BacMam reporter
# Sequence (P09958 108-794): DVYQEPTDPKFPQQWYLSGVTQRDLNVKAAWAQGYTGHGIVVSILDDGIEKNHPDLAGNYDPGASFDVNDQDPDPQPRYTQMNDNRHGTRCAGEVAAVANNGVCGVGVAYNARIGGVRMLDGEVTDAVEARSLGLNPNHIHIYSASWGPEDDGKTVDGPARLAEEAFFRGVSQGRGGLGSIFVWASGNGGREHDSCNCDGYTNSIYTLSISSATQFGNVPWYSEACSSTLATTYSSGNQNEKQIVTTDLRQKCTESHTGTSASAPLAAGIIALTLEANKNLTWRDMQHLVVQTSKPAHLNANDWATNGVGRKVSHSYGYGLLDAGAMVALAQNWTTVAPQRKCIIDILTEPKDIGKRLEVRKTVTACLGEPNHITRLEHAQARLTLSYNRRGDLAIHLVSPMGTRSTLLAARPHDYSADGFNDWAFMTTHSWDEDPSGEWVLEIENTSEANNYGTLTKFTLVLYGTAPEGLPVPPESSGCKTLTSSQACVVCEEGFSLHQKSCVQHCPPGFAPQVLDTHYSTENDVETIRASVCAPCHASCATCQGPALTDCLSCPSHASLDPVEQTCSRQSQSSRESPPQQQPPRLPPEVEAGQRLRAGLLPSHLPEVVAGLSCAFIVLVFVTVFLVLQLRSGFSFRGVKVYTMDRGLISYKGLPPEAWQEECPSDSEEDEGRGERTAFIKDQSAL
# procedure details: Furin cell-based assay (image-based, Golgi-targeted GFP with BMP10 furin/PCSK cleavage site)
# assay setup: 24-hour incubation, read-out: furin golgi cell pXC50 (converted)
reported metric: EC50 (nM)

Worked cases, EC50 given:
Reported EC50, compound CN1CCN(c2ncc(Oc3cc(-c4cc(Cl)cc(Cl)c4)cc(CN4CCC(CC(=O)O)CC4)c3F)cn2)CC1 : ____
25.1

Reported EC50, compound CNC(=O)NCC1CCN(Cc2cc(Oc3cnc(N4CCN(CCC(C)[S+](C)[O-])CC4)nc3)nc(-c3cc(Cl)cc(Cl)c3)c2)CC1 (stereo not drawn) : ____
2

Reported EC50, compound C[C@H]1CN(c2ncc(Oc3cc(CN4CCC(CC(=O)O)CC4)cc(-c4cc(Cl)cc(Cl)c4)n3)cn2)CCN1 : ____
25.1

Reported EC50, compound C[C@@H](O)CN1CCN(c2ccc(Oc3cc(CN4CCC(CC(=O)O)CC4)cc(-c4cc(Cl)cc(Cl)c4)n3)cn2)CC1 : ____
31.6

1. CS(=O)(=O)NCC1CCN(Cc2cc(Oc3ccc(N4CCN(CCC(=O)O)CC4)nc3)nc(-c3cc(Cl)cc(Cl)c3)c2)CC1
2. CNC(=O)NCC1CCN(Cc2cc(Oc3ccc(N4CCN(CCCS(C)(=O)=O)CC4)nc3)nc(-c3cc(Cl)cc(Cl)c3)c2)CC1
Of 1 and 2 , which shows the smaller EC50 value? Identify your pick by its label.
2

###

# tgt: Furin (108-574-Tev-Flag-His) enzyme (Homo sapiens, UniProt P09958)
# Construct: Furin (108-574-Tev-Flag-His) enzyme was expressed and purified from CHO cells; TEV cleavage site (C); FLAG (C); His (C); made in house; host or cells: CHO cells
# Sequence (P09958 108-574): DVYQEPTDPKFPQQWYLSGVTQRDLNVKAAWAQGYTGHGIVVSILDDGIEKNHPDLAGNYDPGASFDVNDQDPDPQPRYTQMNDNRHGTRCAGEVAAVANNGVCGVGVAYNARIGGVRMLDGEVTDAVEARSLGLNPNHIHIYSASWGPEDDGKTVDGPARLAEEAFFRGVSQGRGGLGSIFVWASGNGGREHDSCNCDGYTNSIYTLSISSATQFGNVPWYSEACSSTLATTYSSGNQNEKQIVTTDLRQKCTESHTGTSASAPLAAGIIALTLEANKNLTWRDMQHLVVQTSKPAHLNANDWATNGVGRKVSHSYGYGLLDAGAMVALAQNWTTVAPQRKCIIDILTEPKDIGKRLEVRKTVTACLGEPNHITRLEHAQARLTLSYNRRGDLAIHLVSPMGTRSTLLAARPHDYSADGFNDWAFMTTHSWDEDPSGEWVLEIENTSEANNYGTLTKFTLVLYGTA
# procedure details: Furin enzyme assay
# Type: biochemical
reported metric: furin enzyme pIC50

Reported furin enzyme pIC50, compound CC(=O)NCC1CCN(Cc2cc(Oc3cnc(N4CCN(CCC(=O)O)CC4)nc3)nc(-c3cc(Cl)cc(Cl)c3)c2)CC1 [Example 263] : ____
9.8

Reported furin enzyme pIC50, compound CC(=O)NCC1CCN(Cc2cc(Oc3ccc(N4CC[N+](CCO)(CCO)CC4)nc3)nc(-c3cc(Cl)cc(Cl)c3)c2)CC1 [Example 179] : ____
8.8

Reported furin enzyme pIC50, compound COC(=O)NCC1CCN(Cc2cc(Oc3cnc(N4CCN(C[C@@H](C)O)CC4)nc3)nc(-c3cc(Cl)cc(Cl)c3)c2)CC1 [Example 312] : ____
9.7

###

# tgt: furin (endogenous protease) in U20S cells (Homo sapiens)
# Construct: the endogenous protease cleaves GFP; endogenous in cells; host or cells: U2OS cells transduced with a BacMam reporter
# procedure details: Furin cell-based assay (image-based, Golgi-targeted GFP with BMP10 furin/PCSK cleavage site);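 note: Read-out is mean GFP fluorescence of Golgi puncta per cell by high-content imaging, retained when furin inhibited, over an eleven-point 0.00017–10 µM series, four-parameter fit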
# assay setup: 24-hour incubation, read-out: furin golgi cell pXC50 (converted)
reported metric: EC50 (nM)

A. CC(=O)NCC1CCN(Cc2cc(Oc3ccc(N4CCCNCC4)nc3)nc(-c3cc(Cl)cc(Cl)c3)c2)CC1
B. CC(=O)NCC1CCN(Cc2cc(Oc3cnc(N4CCN(C(C)CCS(C)(=O)=O)CC4)nc3)nc(-c3cc(F)cc(Cl)c3)c2)CC1 (stereo not drawn)
Of A and B , which shows the smaller EC50 value? Identify your pick by its label.
B
(B: 3.98 nM, A: 15.8 nM)
